Here the recorded half-life is given for each entry.
# assayProtocol: Half life in human serum by HPLC-FLU analysis
# Assay type: ADME, cell-free
Numbered stars: 1 amine (or outer) side, 2 acyl side, 3 side chain; on linkers, the order of the positions; unused ones are H or OH. Square brackets hold non-standard residues; d marks the D form. Peptide text beside a SMILES is read from it. LeuΨ(S-CHOHCH2)Ala = CC(C)C[C@H](N[*:1])[C@@H](O)C[C@@H](C)C(=O)[*:2]
Quick note: give the figure in h, leave out the unit.

CC(=O)N[C@@H](CCC(=O)O)C(=O)N[C@@H](CC(C)C)C(=O)N[C@@H](CC(=O)O)C(=O)N[C@@H](CC(C)C)[C@@H](O)C[C@@H](C)C(=O)N[C@H](C(=O)N[C@@H](Cc1ccccc1)C(=O)N[C@@H](Cc1ccc(O)cc1)C(=O)N[C@@H](C)C(=O)N[C@@H](CCC(=O)O)C(=O)N[C@@H](CC(=O)O)C(N)=O)C(C)C (Ac-ELD[LeuΨ(S-CHOHCH2)Ala]VFYAED-NH2) | 6

**Query** Name the recorded half-life for CC(C)C[C@H](NC(=O)[C@@H](N)CCC(=O)O)C(=O)N[C@@H](CC(=O)O)C(=O)N[C@@H](CC(C)C)[C@@H](O)C[C@@H](C)C(=O)N[C@H](C(=O)N[C@@H](Cc1ccccc1)C(=O)N[C@@H](Cc1ccc(O)cc1)C(=O)N[C@@H](C)C(=O)N[C@@H](CCC(=O)O)C(=O)N[C@@H](CC(=O)O)C(=O)O)C(C)C (H-ELD[LeuΨ(S-CHOHCH2)Ala]VFYAED-OH) .
**Result** 3

**Query** Name the recorded half-life for CC(C)C[C@H](NC(=O)[C@@H](N)CCC(=O)O)C(=O)N[C@@H](CC(=O)O)C(=O)N[C@@H](CC(C)C)[C@@H](O)C[C@@H](C)C(=O)N[C@H](C(=O)N[C@@H](CCC(=O)O)C(=O)N[C@@H](Cc1ccccc1)C(=O)O)C(C)C (H-ELD[LeuΨ(S-CHOHCH2)Ala]VEF-OH) .
**Result** 2.2

**Query** Name the recorded half-life for CC(C)C[C@H](NC(=O)[C@@H](N)CCC(=O)O)C(=O)N[C@@H](CC(=O)O)C(=O)N[C@@H](CC(C)C)[C@@H](O)C[C@@H](C)C(=O)N[C@H](C(=O)N[C@@H](Cc1ccccc1)C(=O)N[C@@H](Cc1ccc(O)cc1)C(=O)N[C@@H](C)C(=O)N[C@@H](CCC(=O)O)C(=O)N[C@@H](CC(=O)O)C(N)=O)C(C)C (H-ELD[LeuΨ(S-CHOHCH2)Ala]VFYAED-NH2) .
**Result** 2.1
